MIC A. baumanii ATCC BAA-747 listing for selected molecules.
tested on: Acinetobacter baumannii; format: cell-based
Numbered stars: 1 amine (or outer) side, 2 acyl side, 3 side chain; on linkers, the order of the positions; unused ones are H or OH. Bridge positions count the residues as written; N and C are the ends. Square brackets hold non-standard residues; d marks the D form. Peptide text beside a SMILES is read from it. * marks the point of attachment. ξ: configuration not given here. X17 = CCCCCCN([C@@H](CCN)C(=O)[*:2])[*:1]; dCha = N[C@H](CC1CCCCC1)C(=O)O; Thr(3ξ) = CC(O)[C@H](N)C(=O)O; X1 = CC(C)CN1CCNC[C@H]1C(=O)*; X8 = NCC(C(=O)*)C1CCCCC1; Dab = NCC[C@H](N)C(=O)O; Dap = NC[C@H](N)C(=O)O; X18 = CCCCC(CCN)C(=O)*
Write down the numeric answer in µg/mL and omit the unit.

Completed entries (count: 6):
[[record]]
molecule = "CC(C)C[C@@H]1NC(=O)[C@@H](CC2CCCCC2)NC(=O)[C@H](CCN)NC(=O)[C@@H](NC(=O)[C@H](CN)NC(=O)[C@@H](NC(=O)CCC(N)c2ccccc2)[C@@H](C)O)CCNC(=O)[C@H]([C@@H](C)O)NC(=O)[C@H](CCN)NC(=O)[C@H](CCN)NC1=O (single isomer, unassigned; isomer 2) [Example 61]"
measure_name = "MIC A. baumanii ATCC BAA-747"
numeric_result = 0.25

[[record]]
molecule = "CC(C)C[C@@H]1NC(=O)[C@@H](CC2CCCCC2)NC(=O)[C@H](CCN)NC(=O)[C@@H](NC(=O)[C@H](CN)NC(=O)[C@@H](NC(=O)C(CN)C2CCCCC2)C(C)O)CCNC(=O)[C@H]([C@@H](C)O)NC(=O)[C@H](CCN)NC(=O)[C@H](CCN)NC1=O (some centres unmarked) [Example 28] (X8-[Thr(3ξ)][Dap][Dab][Dab][dCha]L[Dab][Dab]T; lactam 3-C)"
measure_name = "MIC A. baumanii ATCC BAA-747"
numeric_result = 0.06

[[record]]
molecule = "CCCCCCCCC1CNCC1C(=O)N[C@H](C(=O)N[C@@H](CCN)C(=O)N[C@H]1CCNC(=O)[C@H]([C@@H](C)O)NC(=O)[C@H](CCN)NC(=O)[C@H](CCN)NC(=O)[C@H](CC(C)C)NC(=O)[C@@H](Cc2ccc(-c3ccccc3)cc2)NC(=O)[C@H](CCN)NC1=O)C(C)O (single isomer, unassigned; isomer 2) [Example 8]"
measure_name = "MIC A. baumanii ATCC BAA-747"
numeric_result = 1

[[record]]
molecule = "CC(C)CC(CN)C(=O)N[C@H](C(=O)N[C@@H](CN)C(=O)N[C@H]1CCNC(=O)[C@H]([C@@H](C)O)NC(=O)[C@H](CCN)NC(=O)[C@H](CCN)NC(=O)[C@H](CC(C)C)NC(=O)[C@@H](Cc2ccc(-c3ccc(C(F)(F)F)cc3)cc2)NC(=O)[C@H](CCN)NC1=O)C(C)O (single isomer, unassigned; isomer 1)"
measure_name = "MIC A. baumanii ATCC BAA-747"
numeric_result = 0.5

[[record]]
molecule = "CCCCCCN[C@@H](CCN)C(=O)N[C@H](C(=O)N[C@@H](CN)C(=O)N[C@H]1CCNC(=O)[C@H]([C@@H](C)O)NC(=O)[C@H](CCN)NC(=O)[C@H](CCN)NC(=O)[C@H](CC(C)C)NC(=O)[C@@H](CC2CCCCC2)NC(=O)[C@H](CCN)NC1=O)C(C)O (some centres unmarked) [Example 49] (H-[X17][Thr(3ξ)][Dap][Dab][Dab][dCha]L[Dab][Dab]T; lactam 4-C)"
measure_name = "MIC A. baumanii ATCC BAA-747"
numeric_result = 0.5

[[record]]
molecule = "CC(C)CC1CNCC(C(=O)N[C@H](C(=O)N[C@@H](CN)C(=O)N[C@H]2CCNC(=O)[C@H]([C@@H](C)O)NC(=O)[C@H](CCN)NC(=O)[C@H](CCN)NC(=O)[C@H](CC(C)C)NC(=O)[C@@H](Cc3ccc(Br)cc3)NC(=O)[C@H](CCN)NC2=O)C(C)O)C1 (single isomer, unassigned; isomer 2) [Example 12]"
measure_name = "MIC A. baumanii ATCC BAA-747"
numeric_result = 0.125


stdin: Endpoint output: MIC A. baumanii ATCC BAA-747 of CC(C)CC1CNCC(C(=O)N[C@H](C(=O)N[C@@H](CN)C(=O)N[C@H]2CCNC(=O)[C@H]([C@@H](C)O)NC(=O)[C@H](CCN)NC(=O)[C@H](CCN)NC(=O)[C@H](CC(C)C)NC(=O)[C@@H](Cc3ccc(-c4ccccc4)cc3)NC(=O)[C@H](CCN)NC2=O)C(C)O)C1 (single isomer, unassigned; isomer 2) [Example 4] . Value?
stdout: 0.5

stdin: Endpoint output: MIC A. baumanii ATCC BAA-747 of CC(C)C[C@@H]1NC(=O)[C@@H](CC2CCCCC2)NC(=O)[C@H](CCN)NC(=O)[C@@H](NC(=O)[C@H](CN)NC(=O)[C@@H](NC(=O)CC(N)C2CCCCC2)C(C)O)CCNC(=O)[C@H]([C@@H](C)O)NC(=O)[C@H](CCN)NC(=O)[C@H](CCN)NC1=O (single isomer, unassigned; isomer 1) [Example 32] . Value?
stdout: 0.25

stdin: Endpoint output: MIC A. baumanii ATCC BAA-747 of CC(C)C[C@@H]1NC(=O)[C@@H](CC2CCCCC2)NC(=O)[C@H](CCN)NC(=O)[C@@H](NC(=O)[C@H](CCN)NC(=O)[C@@H](NC(=O)C(CCN)C2CCCCC2)[C@@H](C)O)CCNC(=O)[C@H]([C@@H](C)O)NC(=O)[C@H](CCN)NC(=O)[C@H](CCN)NC1=O (single isomer, unassigned; isomer 2) . Value?
stdout: 0.25

stdin: Endpoint output: MIC A. baumanii ATCC BAA-747 of CC(C)C[C@@H]1NC(=O)[C@@H](Cc2ccccc2)NC(=O)[C@H](CCN)NC(=O)[C@@H](NC(=O)[C@H](CN)NC(=O)[C@@H](NC(=O)[C@@H]2CNCCN2CC(C)C)C(C)O)CCNC(=O)[C@H]([C@@H](C)O)NC(=O)[C@H](CCN)NC(=O)[C@H](CCN)NC1=O (some centres unmarked) [Example C2, reference compound] (X1-[Thr(3ξ)][Dap][Dab][Dab][dF]L[Dab][Dab]T; lactam 3-C) . Value?
stdout: 0.25

stdin: Endpoint output: MIC A. baumanii ATCC BAA-747 of CCCCC(CCN)C(=O)N[C@H](C(=O)N[C@@H](CCN)C(=O)N[C@H]1CCNC(=O)[C@H]([C@@H](C)O)NC(=O)[C@H](CCN)NC(=O)[C@H](CCN)NC(=O)[C@H](CC(C)C)NC(=O)[C@@H](Cc2ccccc2)NC(=O)[C@H](CCN)NC1=O)C(C)O (some centres unmarked) [Example C4, reference compound] (X18-[Thr(3ξ)][Dab][Dab][Dab][dF]L[Dab][Dab]T; lactam 3-C) . Value?
stdout: 1
